Test system: CP335
Assay: qHTS profiling for inhibitors of Plasmodium falciparum proliferation (AID 504749); further: nearly all actives have a fitted effect of over 60% in size; further: potency means the concentration at half of the fitted maximal effect
Settings: P. falciparum in erythrocytes, SYBR Green DNA, 72 h; series mostly up to 28.7 µM
Results filed as inconclusive are left out. Activity calls are given as the source filed them. The call rests on the fitted dose curve; in most records, active means well fitted inhibition curve with a large enough effect; inconclusive means small, poorly fitted or top-dose-only effect; inactive means flat fitted curve, though single readings scatter.
recordedEndpoint: Potency

Before answering, review these 5 worked examples.
# compound `CC(C)[N+](C)(CCC(C(N)=O)(c1ccccc1)c1ccccc1)C(C)C` ; its Potency = inactive

# compound `CN1CCc2cc(Cl)c(O)cc2[C@H]2c3ccccc3CC[C@@H]21` ; its Potency = 8.49 µM (active)

# compound `C[N+]1(CCC(C(N)=O)(c2ccccc2)c2ccccc2)CCCCC1` ; its Potency = inactive

# compound `OC(c1ccccc1)(c1ccccc1)C1CCNCC1` ; its Potency = inactive

# compound `COC(=O)C1=CCCN(C)C1` ; its Potency = inactive

Switching to the query record.
# compound `COP(=O)(OC)OC=C(Cl)Cl` ; its Potency = inactive

###

System: P94_40
Experiment: qHTS profiling for inhibitors of Plasmodium falciparum proliferation (AID 504749); further: nearly all actives have a fitted effect of over 60% in size
Conditions: P. falciparum in erythrocytes, SYBR Green DNA, 72 h; series mostly up to 28.7 µM
Records with an inconclusive call do not appear. Active and inactive are the calls of the source. The call rests on the fitted dose curve; in most records, active means well fitted inhibition curve with a large enough effect; inconclusive means small, poorly fitted or top-dose-only effect; inactive means flat fitted curve, though single readings scatter.
Reply using exactly one outcome from True for active, False for inactive

Inquiry: # lookup: test call for CCC1(c2ccccc2)CCC(=O)NC1=O (configuration not stated)
Reply text: False

Inquiry: # lookup: test call for CNC(=O)NC(O)C(Cl)(Cl)Cl (configuration not stated)
Reply text: False

Inquiry: # lookup: test call for `C[C@]12CC[C@H]3[C@@H](CC=C4C[C@@H](O)CC[C@@]43C)[C@@H]1CC[C@@H]2O`
Reply text: False

Inquiry: # lookup: test call for `CC(C)(O)C(Cl)(Cl)Cl`
Reply text: True

Inquiry: # lookup: test call for `O=C(O)c1nn(Cc2ccc(Cl)cc2Cl)c2ccccc12`
Reply text: False

Inquiry: # lookup: test call for `C[C@]12Cc3nonc3C[C@@H]1CC[C@@H]1[C@@H]2CC[C@@]2(C)[C@H]1CC[C@]2(C)O`
Reply text: False

Inquiry: # lookup: test call for CCN(CC)C(C)C(=O)c1ccccc1 (configuration not stated)
Reply text: False

Inquiry: # lookup: test call for `NC(=O)OCCCc1ccccc1`
Reply text: False

Inquiry: # lookup: test call for `Oc1c(Br)cc(Br)cc1Br`
Reply text: False

Inquiry: # lookup: test call for `CN1C(=O)[C@@H](NC(=O)c2cc3ccccc3[nH]2)N=C(c2ccccc2)c2ccccc21`
Reply text: True

Inquiry: # lookup: test call for CCOC(=O)NC(O)C(Cl)(Cl)Cl (configuration not stated)
Reply text: False

Inquiry: # lookup: test call for `CCC(=O)O[C@H]1CC[C@H]2[C@@H]3CCC4=CC(=O)CC[C@]4(C)[C@H]3CC[C@]12C`
Reply text: False

###

Details: Ebola virus entry assay, reporter ratio channel; Channel type: primary
Activity calls are given as the source filed them. How the calls were made is not given here.
Reply using exactly one outcome from active, inactive

Inquiry: # lookup: test call for `CN(C)CC/C=C1\c2ccccc2Sc2ccc(Cl)cc21`
Reply text: active

Inquiry: # lookup: test call for `CC1(C)CO[C@@H](CC(=O)O)CN1`
Reply text: inactive

Inquiry: # lookup: test call for CC(C(O)c1ccccc1)N(C)C/C=C/c1ccccc1 (centres undefined)
Reply text: active

Inquiry: # lookup: test call for `COc1ccc(-n2nc(CCC(=O)N(C)O)cc2-c2ccc(Cl)cc2)cc1`
Reply text: active

Inquiry: # lookup: test call for `CCc1nnc(NS(=O)(=O)c2ccc(N)cc2)s1`
Reply text: inactive

Inquiry: # lookup: test call for `NS(=O)(=O)c1ccc(N2CCCCS2(=O)=O)cc1`
Reply text: inactive

Inquiry: # lookup: test call for CC(C)COCC(CN(Cc1ccccc1)c1ccccc1)N1CCCC1 (centres undefined)
Reply text: active

Inquiry: # lookup: test call for `O=C1c2ccccc2C(=O)C1c1ccccc1`
Reply text: inactive

Inquiry: # lookup: test call for CCCCC1C(=O)N(c2ccccc2)N(c2ccc(O)cc2)C1=O (centres undefined)
Reply text: active

Inquiry: # lookup: test call for CCc1cccc2c3c([nH]c12)C(CC)(CC(=O)O)OCC3 (centres undefined)
Reply text: inactive

Inquiry: # lookup: test call for `O=C(Nc1ncc([N+](=O)[O-])s1)c1cccs1`
Reply text: inactive

Inquiry: # lookup: test call for `CCN(CC)CCOc1ccc(Cc2ccccc2)cc1`
Reply text: active

Inquiry: # lookup: test call for `Cc1cc(CC(=O)O)n(C)c1C(=O)c1ccc(Cl)cc1`
Reply text: inactive

Inquiry: # lookup: test call for `OC[C@@H](O)[C@@H](O)[C@H](O)[C@H](O)CO`
Reply text: inactive

Inquiry: # lookup: test call for `CC(C)(C)C(=O)OCOC(=O)[C@@H]1N2C(=O)[C@@H](NC(=O)[C@H](N)c3ccccc3)[C@H]2SC1(C)C`
Reply text: active

Inquiry: # lookup: test call for CN1CCCC(CC2c3ccccc3Sc3ccccc32)C1 (centres undefined)
Reply text: active

Inquiry: # lookup: test call for CCC(C(=O)OCCN1CCOC(c2ccccc2)C1C)c1ccccc1 (centres undefined)
Reply text: active

Inquiry: # lookup: test call for `NC(=O)Cc1cccc(C(=O)c2ccccc2)c1N`
Reply text: inactive

Inquiry: # lookup: test call for `NC(=O)OCCCc1ccccc1`
Reply text: inactive

Inquiry: # lookup: test call for `CCOC(=O)c1cc(=O)c2c(OCC(COc3cccc4oc(C(=O)OCC)cc(=O)c34)OC(=O)[C@@H](N)CCCCN)cccc2o1`
Reply text: inactive

Inquiry: # lookup: test call for CCCCN(CCCC)CC(O)c1cc(Cl)cc2c1-c1ccc(Cl)cc1/C2=C/c1ccc(Cl)cc1 (centres undefined)
Reply text: active

Inquiry: # lookup: test call for `Nc1ccn([C@H]2CC[C@@H](CO)O2)c(=O)n1`
Reply text: inactive

Inquiry: # lookup: test call for `Clc1ccccc1-c1nc(-c2ccncc2)no1`
Reply text: inactive

Inquiry: # lookup: test call for `O=C(NCCc1c[nH]c2ccccc12)c1cccnc1`
Reply text: inactive

Cited source: PubChem BioAssay (NCATS)
